- TESTED TARGET: Nanoluciferase-BRD9 fusion protein (3×FLAG-NLuc-BRD9) in SYO-1 cells (Homo sapiens (Human))
- TEST DESCRIPTION: SYO1 BRD9 NanoLuc degradation assay
- Format: cell-based
- EXPERIMENTAL CONTEXT: SYO-1 cells expressing 3×FLAG-NLuc-BRD9, 6 hours incubation, top dose 1 μM
MEASURED PARAMETER: IC50

Dear colleague, could you please provide IC50 for the compounds listed below?
1. CNC(=O)N1CCc2c(-c3cc(OC)c(CN4CCC(CCN5CCN(c6ccc7c(c6)C6(CC6)N(C6CCC(=O)NC6=O)C7=O)CC5)CC4)c(OC)c3)cn(C)c(=O)c2C1 (stereo not drawn)
2. COc1cc(-c2cn(C)c(=O)c3c2CCN(C(=O)NCCN2CCC4CCN(c5ccc6c(c5)C(=O)N(C5CCC(=O)NC5=O)C6=O)C4C2)C3)cc(OC)c1CN(C)C (stereo not drawn)
3. COc1cc(-c2cn(C)c(=O)c3c2CCN(C(=O)NC2CCC4CN(c5ccc6c(c5)C(=O)N(C5CCC(=O)NC5=O)C6=O)CC42)C3)cc(OC)c1CN(C)C (stereo not drawn)

Result string:
≥ 1000 nM
100 to 1000 nM
< 10 nM

* * *

- TESTED TARGET: Nanoluciferase-BRD9 fusion protein (3×FLAG-NLuc-BRD9) in SYO-1 cells (Homo sapiens (Human), UniProt Q9H8M2)
- Sequence (Q9H8M2 whole entry, the tested form may be a part): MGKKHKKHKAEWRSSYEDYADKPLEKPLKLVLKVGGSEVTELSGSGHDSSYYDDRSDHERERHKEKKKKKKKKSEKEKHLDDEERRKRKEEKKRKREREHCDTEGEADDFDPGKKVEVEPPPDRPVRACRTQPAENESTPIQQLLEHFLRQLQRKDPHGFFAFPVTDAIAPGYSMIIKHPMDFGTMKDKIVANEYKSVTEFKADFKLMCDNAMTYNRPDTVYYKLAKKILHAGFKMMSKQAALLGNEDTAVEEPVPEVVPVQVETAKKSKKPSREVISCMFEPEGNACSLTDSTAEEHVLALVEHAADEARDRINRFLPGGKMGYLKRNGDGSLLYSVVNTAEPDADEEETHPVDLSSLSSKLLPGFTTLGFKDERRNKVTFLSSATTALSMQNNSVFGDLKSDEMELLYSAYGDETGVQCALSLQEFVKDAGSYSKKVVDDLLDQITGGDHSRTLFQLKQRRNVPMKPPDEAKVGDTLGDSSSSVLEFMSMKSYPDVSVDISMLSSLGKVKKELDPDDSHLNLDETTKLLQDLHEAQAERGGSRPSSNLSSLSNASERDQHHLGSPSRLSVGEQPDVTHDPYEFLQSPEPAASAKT
- TEST DESCRIPTION: SYO1 BRD9 NanoLuc degradation assay
- Format: cell-based
- EXPERIMENTAL CONTEXT: SYO-1 cells, 6 hours, Table 6A
pIC50: −log10 of the molar value.
Provide the recorded pIC50 for the entries that follow.

In the examples that follow, each entry is paired with its recorded pIC50.
| COMPOUND | pIC50 |
| --- | --- |
| COc1cc(-c2cn(C)c(=O)c3c2CCN(C(=O)NCCCCCCCCNc2ccc4c(c2)C(=O)N(C2CCC(=O)NC2=O)C4=O)C3)cc(OC)c1CN(C)C (centres unmarked) | > 8.00 |
| COc1cc(-c2cn(C)c(=O)c3c2CCN(C(=O)NCCCCCOc2ccc4c(c2)C(=O)N(C2CCC(=O)NC2=O)C4=O)C3)cc(OC)c1CN(C)C (centres unmarked) | > 8.00 |
| COc1cc(-c2cn(C)c(=O)c3c2CCN(C(=O)NCCCCCCCC(=O)N[C@H](C(=O)N2C[C@H](O)C[C@H]2C(=O)NCc2ccc(-c4scnc4C)cc2)C(C)(C)C)C3)cc(OC)c1CN(C)C | < 8.00 |

Hi, could you look up pIC50 for each item in my list?
1. COc1cc(-c2cn(C)c(=O)c3c2CN(C(=O)NCCOCCOCCNc2cccc4c2C(=O)N(C2CCC(=O)NC2=O)C4=O)CC3)cc(OC)c1CN(C)C (centres unmarked)
2. COc1cc(-c2cn(C)c(=O)c3c2CCN(C(=O)NCCCCCCCCNC(=O)COc2cccc4c2C(=O)N(C2CCC(=O)NC2=O)C4=O)C3)cc(OC)c1CN(C)C (centres unmarked)
3. COc1cc(-c2cn(C)c(=O)c3c2CCN(C(=O)NCCCCCNc2cccc4c2C(=O)N(C2CCC(=O)NC2=O)C4=O)C3)cc(OC)c1CN(C)C (centres unmarked)
4. CNC(=O)N1CCc2c(-c3cc(OC)c(CN4CCC(CCN5CCN(c6ccc7c(c6)C(=O)N(C6CCC(=O)NC6=O)C7=O)CC5)CC4)c(OC)c3)cn(C)c(=O)c2C1 (centres unmarked)

Result string:
1: < 6.00; 2: < 7.00; 3: < 8.00; 4: > 8.00

Please go through the list and note pIC50 for each compound.
1. CNC(=O)N1CCc2c(-c3cc(OC)c(CN4CCN(C(=O)CCCOc5cccc6c5C(=O)N(C5CCC(=O)NC5=O)C6=O)CC4)c(OC)c3)cn(C)c(=O)c2C1 (centres unmarked) [Compound D1]
2. COc1cc(-c2cn(C)c(=O)c3c2CCN(C(=O)NCCCCCCCCNc2cccc4c2CN(C2CCC(=O)NC2=O)C4=O)C3)cc(OC)c1CN(C)C (centres unmarked)
3. COc1cc(-c2cn(C)c(=O)c3c2CCN(C(=O)NCCN(C)CCNc2cccc4c2C(=O)N(C2CCC(=O)NC2=O)C4=O)C3)cc(OC)c1CN(C)C (centres unmarked)
4. CNC(=O)N1CCc2c(-c3cc(OC)c(CN4CC(NC(=O)CCCCCOc5cccc6c5C(=O)N(C5CCC(=O)NC5=O)C6=O)C4)cc3OC)cn(C)c(=O)c2C1 (centres unmarked)
5. COc1cc(-c2cn(C)c(=O)c3c2CCN(C(=O)NCCN(C)CCNC(=O)COc2cccc4c2C(=O)N(C2CCC(=O)NC2=O)C4=O)C3)cc(OC)c1CN(C)C (centres unmarked)
6. COc1cc(-c2cn(C)c(=O)c3c2CCN(C(=O)NCCN(C)CCOCCOc2cccc4c2C(=O)N(C2CCC(=O)NC2=O)C4=O)C3)cc(OC)c1CN(C)C (centres unmarked)
7. CNC(=O)N1CCc2c(-c3cc(OC)c(CN4CCN(C(=O)COc5cccc6c5C(=O)N(C5CCC(=O)NC5=O)C6=O)CC4)c(OC)c3)cn(C)c(=O)c2C1 (centres unmarked) [Compound D2]
8. COc1cc(-c2cn(C)c(=O)c3c2CN(C(=O)N(C)C)CC3)cc(OC)c1CN(C)CCOCCN1CCN(c2ccc3c(c2)C(=O)N(C2CCC(=O)NC2=O)C3=O)CC1 (centres unmarked)

Result string:
["< 8.00", "> 8.00", "< 7.00", "< 7.00", "< 7.00", "< 6.00", "< 8.00", "< 6.00"]

Batch: pIC50 for all items listed.
1. CNC(=O)N1CCc2c(-c3cc(OC)c(CN4CCC5(CC4)CN(C(=O)CCCCOc4ccc6c(c4)C(=O)N(C4CCC(=O)NC4=O)C6=O)CCO5)c(OC)c3)cn(C)c(=O)c2C1 (centres unmarked)
2. COc1cc(-c2cn(C)c(=O)c3c2CCN(C(=O)CCCCCCCCNc2cccc4c2C(=O)N(C2CCC(=O)NC2=O)C4=O)C3)cc(OC)c1CN(C)C (centres unmarked)

Result string:
["< 8.00", "< 6.00"]

Taken from patent US12384776B2.
